Every entry's value here was drawn from paper PMC3154276.

- test target: SF-PhoQc (Shigella flexneri)
- Construct: The amplified DNA segment encodes PhoQ HK amino acids 251–486; made in house; host or cells: E. coli JM109
- Sequence (Q83RR1 251-486): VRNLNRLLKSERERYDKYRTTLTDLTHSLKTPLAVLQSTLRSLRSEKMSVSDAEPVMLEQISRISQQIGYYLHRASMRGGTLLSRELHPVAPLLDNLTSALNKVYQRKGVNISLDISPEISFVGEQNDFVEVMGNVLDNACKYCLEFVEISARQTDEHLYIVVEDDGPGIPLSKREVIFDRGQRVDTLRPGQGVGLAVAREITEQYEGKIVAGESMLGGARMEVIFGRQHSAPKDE
- procedure details: Pyrophosphate Reagent coupled enzymatic activity assay of SF-PhoQc
- Assay type: biochemical, S. flexneri 2a 301
- conditions used: Pyrophosphate Reagent
observable: decrease of SF-PhoQc catalyzed consumption of ATP (%)
Give the value, in units of %, as a plain number.

Observe how each entry below is paired with its result.
CCOc1ccccc1-c1cc(C(=O)N/N=C/c2ccc(OCc3ccccc3)c(OC)c2)c2ccccc2n1; 82.3
O=C(Nc1ccc(C2(c3cccc(NC(=O)c4cccc5ccccc45)c3)c3ccccc3C(=O)c3ccccc32)cc1)c1ccc2ccccc2c1; 100
O=C(O)c1ccc(Cl)c(-c2ccc(/C=N/NC(=O)c3ccc(Br)cc3)o2)c1; 67.1

# evaluate next
Lab note: measured decrease of SF-PhoQc catalyzed consumption of ATP of `O=C(O)c1cc(-c2ccc(-c3ccccc3Cl)o2)nc2ccc3ccccc3c12` was 65.8
